test system: DND-41; experiment: selective drug sensitivity score (sDSS, relative to normal bone marrow) (sDSS (score)); higher = more potent and effective on the cell line relative to normal bone marrow cells; settings: 72 h;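 also: ALL cell lines in 384-well plates, five doses spanning 10,000-fold, each plate scaled between vehicle and 100 µmol/L benzalkonium chloride controls, sDSS an adapted area-under-curve metric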
Measured selective drug sensitivity score, listed per entry.
Keep it simple and answer with nothing but the number.

| molecule | endpoint-label | recorded-value |
| --- | --- | --- |
| C[C@@H](Oc1cc(-n2cnc3ccc(CN4CCN(C)CC4)cc32)sc1C(N)=O)c1ccccc1C(F)(F)F (top concentration 10000 nM) | selective drug sensitivity score | 13.2 |

Quick check: selective drug sensitivity score on DND-41, item Cc1cnc(-c2ccccc2C(C)C)nc1NCc1ccc(-n2ccnn2)cc1 [ML323] (top concentration 10000 nM) ? 1.34

Quick check: selective drug sensitivity score on DND-41, item COc1cc(OC)c(/C=C/S(=O)(=O)Cc2ccc(OC)c(NCC(=O)O)c2)c(OC)c1 [Rigosertib] (top concentration 10000 nM) ? 9.06
